I'd be grateful if you could share measured pIC50 for these entries.
- tested.system: normal recombinant Culex pipiens AChE1 (Culex pipiens, UniProt Q86GC8)
- assay.info: Inhibition of normal recombinant AChE1 (lysates of transfected Drosophile S2 cells, Ellman method)
One number for each entry, as −log10 of the molar value.

compound	recorded.number
CCCCN1C(=O)NC(=O)C(=Cc2ccc(C)s2)C1=O	4.92
COc1cccc(N2C(=O)NC(=O)C(=Cc3ccc(C)s3)C2=O)c1	3.99
COc1cccc(N2C(=O)NC(=O)C(=Cc3ccc(C)o3)C2=O)c1	5.47

Respectfully, I request pIC50 for each entry included below.
1. COc1ccc(N2C(=O)NC(=O)C(=Cc3ccc(C)o3)C2=O)cc1
2. Cc1ccc(C=C2C(=O)N(C)C(=O)N(C)C2=O)o1
3. Cc1ccc(C=C2C(=O)NC(=O)N(c3ccccc3)C2=O)o1
4. CCOc1ccc(N2C(=O)NC(=O)C(=Cc3ccc(C)o3)C2=O)cc1

4.52
4.14
4.47
5.15

Respectfully, I request pIC50 for each entry included below.
1. CNC(=O)Oc1ccccc1OC(C)C [Propoxur, propoxur, reference compound]
2. Cc1ccc(C=C2C(=O)NC(=O)N(c3ccc(C(C)C)cc3)C2=O)o1

[5.05, 3.89]

The compound identified as Cc1ccc(C=C2C(=O)NC(=O)N(c3ccc(Br)cc3)C2=O)s1 registered its pIC50 at 5.02

###

- tested.system: normal recombinant Culex pipiens AChE1 (Culex pipiens, UniProt Q86GC8)
- assay.info: Inhibition of normal recombinant AChE1 (lysates of transfected Drosophile S2 cells, Ellman method)
- Protocol: The inhibitory properties of the compounds of the preceding table I are tested with regard to the AChE activity by either using a normal or G119S-mutated recombinant AChE or using extracts of larvae of mosquitoes which are sensitive (carrying normal AChE) or resistant (carrying G119S-mutated AChE) to organophosphorus compounds and carbamates. […]
I'd be grateful if you could share measured pIC50 for these entries.
Give bare numbers, as −log10 of the molar value.

Worked set:
Cc1cccc(N2C(=O)NC(=O)C(=Cc3ccc(C)s3)C2=O)c1 4.41
O=C1NC(=O)N(c2ccccc2)C(=O)C1=Cc1ccco1 2.86
Cc1ccc(C=C2C(=O)NC(=O)N(Cc3ccco3)C2=O)o1 5.00
Cc1ccc(C=C2C(=O)NC(=O)N(c3ccc(C)c(C)c3)C2=O)o1 4.80

Now for another entry.
The compound identified as C=CCN1C(=O)C(=Cc2ccc(C)o2)C(=O)NC1=S registered its pIC50 at 4.21

###

- tested.system: G119S-mutated recombinant Culex pipiens AChE1 (Culex pipiens, UniProt Q86GC8, G247S)
- assay.info: biochemical
value.kind: IC50 (µM)
One number for each entry, in µM.

Worked set:
COc1ccc(N2C(=O)NC(=O)C(=Cc3ccc(C)o3)C2=O)cc1 22
CN1C(=O)C(=Cc2ccco2)C(=O)N(C)C1=O 357
Cc1ccc(N2C(=O)NC(=O)C(=Cc3ccc(C)o3)C2=O)cc1 3.5
Cc1ccc(C=C2C(=O)NC(=O)N(Cc3ccco3)C2=O)o1 4.8
Cc1ccc(C=C2C(=O)NC(=O)N(c3ccc(F)cc3)C2=O)s1 8.6

Respectfully, I request IC50 for each entry included below.
1. CCOc1ccc(N2C(=O)NC(=O)C(=Cc3ccc(C)o3)C2=O)cc1
2. C=CCN1C(=O)C(=Cc2ccc(C)o2)C(=O)NC1=S
3. Cc1ccc(C=C2C(=O)NC(=O)N(c3ccccc3)C2=O)o1
4. CCc1ccc(N2C(=O)NC(=O)C(=Cc3ccc(C)o3)C2=O)cc1
5. CCCCN1C(=O)NC(=O)C(=Cc2ccc(C)s2)C1=O

1: 2.9; 2: 29; 3: 23; 4: 3.4; 5: 15.5

###

- tested.system: AChE1 activity of extracts of Culex pipiens larvae sensitive to propoxur (normal AChE) (Culex pipiens, UniProt Q86GC8)
- Construct: from tissue; host or cells: whole larvae of propoxur-sensitive Culex pipiens, Triton X100 homogenate supernatant
- assay.info: Inhibition of AChE1 activity in extracts of propoxur-sensitive mosquito larvae
- Format: biochemical
- particulars: extracts of propoxur-sensitive larvae, 15 minutes incubation; read-out: IC50, Sensitive larvae
I'd be grateful if you could share measured IC50 for these entries.
Hi, when you answer, please include the unit after the number. Thanks!

Cc1cccc(N2C(=O)NC(=O)C(=Cc3ccc(C)s3)C2=O)c1 442 µM

Respectfully, I request IC50 for each entry included below.
1. Cc1ccc(C=C2C(=O)NC(=O)N(c3ccccc3)C2=O)o1
2. COc1cccc(N2C(=O)NC(=O)C(=Cc3ccc(C)s3)C2=O)c1

1: 29.4 µM; 2: 118 µM

###

I'd be grateful if you could share measured Sensitive/resistant ratio for these entries.
- System: AChE1 activity of extracts of Culex pipiens larvae resistant to propoxur (G119S-mutated AChE)
- assay.info: biochemical
- particulars: IC50 on larval extracts, sensitive relative to resistant
Numbers only.

Worked set:
compound	Sensitive/resistant ratio
COc1cccc(N2C(=O)NC(=O)C(=Cc3ccc(C)s3)C2=O)c1 [(3)]	3.5
Cc1ccc(C=C2C(=O)NC(=O)N(Cc3ccco3)C2=O)o1 [(18)]	7.1
C=CCN1C(=O)C(=Cc2ccc(C)o2)C(=O)NC1=S [(8)]	1.8
COc1ccc(N2C(=O)NC(=O)C(=Cc3ccc(C)o3)C2=O)cc1 [(5)]	7.3
Cc1ccc(C=C2C(=O)NC(=O)N(c3ccc(Cl)cc3)C2=O)o1 [(6)]	12.0
COc1cccc(N2C(=O)NC(=O)C(=Cc3ccc(C)o3)C2=O)c1 [(12)]	8.5

The compound identified as Cc1ccc(C=C2C(=O)NC(=O)N(c3ccc(Cl)cc3)C2=O)s1 [(15)] registered its Sensitive/resistant ratio at 6.9

###

- tested.system: AChE1 activity of extracts of Culex pipiens larvae resistant to propoxur (G119S-mutated AChE) (Culex pipiens, UniProt Q86GC8, G247S)
- assay.info: biochemical
I'd be grateful if you could share measured log10(IC50) for these entries.
Please be aware that the numbers have been log10-transformed from IC50 in µM.

Worked set:
Cc1ccc(C=C2C(=O)NC(=O)N(c3ccc(C(C)C)cc3)C2=O)o1 1.32
Cc1ccc(N2C(=O)NC(=O)C(=Cc3ccc(C)o3)C2=O)cc1 1.15
Cc1ccc(C=C2C(=O)NC(=O)N(c3ccc(Cl)cc3)C2=O)o1 1.43
Cc1ccc(C=C2C(=O)NC(=O)N(c3ccc(Cl)cc3)C2=O)s1 2.25
Cc1ccc(C=C2C(=O)NC(=O)N(c3ccc(F)cc3)C2=O)s1 1.34

Respectfully, I request log10(IC50) for each entry included below.
1. COc1cccc(N2C(=O)NC(=O)C(=Cc3ccc(C)s3)C2=O)c1
2. Cc1ccc(C=C2C(=O)N(C)C(=O)N(C)C2=O)o1

[1.52, 0.88]

The compound identified as CCc1ccc(N2C(=O)NC(=O)C(=Cc3ccc(C)o3)C2=O)cc1 registered its log10(IC50) at 1.28

###

- Test system: AChE1 activity of extracts of Culex pipiens larvae resistant to propoxur (G119S-mutated AChE)
- assay.info: biochemical
- particulars: IC50 on larval extracts, sensitive relative to resistant
I'd be grateful if you could share measured Sensitive/resistant ratio for these entries.
Numbers only.

Worked set:
molecule	Sensitive/resistant ratio
Cc1cccc(N2C(=O)NC(=O)C(=Cc3ccc(C)s3)C2=O)c1	15.5
Cc1ccc(N2C(=O)NC(=O)C(=Cc3ccc(C)o3)C2=O)cc1	7.7

Respectfully, I request Sensitive/resistant ratio for each entry included below.
1. Cc1ccc(C=C2C(=O)NC(=O)N(c3ccc(C)c(C)c3)C2=O)o1
2. Cc1ccc(C=C2C(=O)NC(=O)N(c3ccccc3)C2=O)o1
3. Cc1ccc(C=C2C(=O)NC(=O)N(c3ccc(C(C)C)cc3)C2=O)o1
4. CCc1ccc(N2C(=O)NC(=O)C(=Cc3ccc(C)o3)C2=O)cc1
5. CCCCN1C(=O)NC(=O)C(=Cc2ccc(C)s2)C1=O

1: 12.2; 2: 4.7; 3: 6.1; 4: 16.7; 5: 1.0

The molecule identified as CNC(=O)Oc1ccccc1OC(C)C [Propoxur, propoxur, reference compound] registered its Sensitive/resistant ratio at 0.00015

###

I'd be grateful if you could share measured Sensitive/resistant ratio for these entries.
- Test system: larvae of mosquitoes Culex pipiens resistant to propoxur
- assay.info: Insecticidal activity: larval mortality, propoxur-resistant larvae
- Format: in vivo
- particulars: LD50 larval mortality, sensitive relative to resistant
One number for each entry.

Worked set:
molecule	tested.system	recorded.number
Cc1cccc(N2C(=O)NC(=O)C(=Cc3ccc(C)s3)C2=O)c1	larvae of mosquitoes Culex pipiens resistant to propoxur	2.7
CNC(=O)Oc1ccccc1OC(C)C [Propoxur, propoxur, reference compound]	larvae of mosquitoes Culex pipiens resistant to propoxur	0.00063
C=CCN1C(=O)C(=Cc2ccc(C)o2)C(=O)NC1=S	larvae of mosquitoes Culex pipiens resistant to propoxur	1.8
COc1cccc(N2C(=O)NC(=O)C(=Cc3ccc(C)s3)C2=O)c1	larvae of mosquitoes Culex pipiens resistant to propoxur	3.2

Now for another entry.
The molecule identified as Cc1ccc(C=C2C(=O)NC(=O)N(c3ccccc3)C2=O)o1 registered its Sensitive/resistant ratio at 2.2
